targetSystem: Mnk2 (Homo sapiens (Human), UniProt Q9HBH9)
Sequence (Q9HBH9 whole entry): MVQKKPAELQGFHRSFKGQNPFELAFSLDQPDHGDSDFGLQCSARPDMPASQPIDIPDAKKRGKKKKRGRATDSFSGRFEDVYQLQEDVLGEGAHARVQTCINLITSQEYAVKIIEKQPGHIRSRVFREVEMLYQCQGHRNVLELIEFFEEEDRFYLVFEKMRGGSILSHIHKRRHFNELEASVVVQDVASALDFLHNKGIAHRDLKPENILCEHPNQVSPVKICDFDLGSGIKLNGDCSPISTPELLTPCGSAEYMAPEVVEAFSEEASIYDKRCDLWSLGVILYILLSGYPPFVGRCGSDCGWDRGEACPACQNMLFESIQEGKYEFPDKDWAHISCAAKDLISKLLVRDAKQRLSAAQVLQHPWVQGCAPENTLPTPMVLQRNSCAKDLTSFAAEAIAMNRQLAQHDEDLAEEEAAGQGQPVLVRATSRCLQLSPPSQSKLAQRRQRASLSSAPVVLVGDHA
assayMethodText: Mnk2 kinase inhibition, ADP-Glo ADP monitoring assay
Format: biochemical
testParameters: ADP-Glo kinase assay; unit inferred; read-out: Mnk2 IC50
Each entry below carries its recorded IC50.
assayReadout: IC50 (nM)

>>> endpointvalue("Nc1cc(-n2cnc3ccccc32)nc(NCc2cccnc2)n1")
1800
>>> endpointvalue("c1cc(NCCc2ccncc2)nc(-n2cnc3ccccc32)c1")
10
>>> endpointvalue("CCNC(=O)Nc1nccc(-n2cnc3ccccc32)n1")
2200
>>> endpointvalue("N#Cc1cnc(NCCc2ccncc2)nc1-n1cnc(-c2ccccc2)c1")
57
>>> endpointvalue("O=C(NC1CC1)c1cc(-n2cnc3ccccc32)nc(NCCc2ccncc2)n1")
5400
>>> endpointvalue("Brc1cnc(NCCc2ccncc2)nc1-n1cnc2ccccc21")
69
>>> endpointvalue("c1ccc2c(c1)ncn2-c1nccc(NCCc2c[nH]c3ccccc23)n1")
110
>>> endpointvalue("Clc1cnc(OCCc2ccncc2)nc1-n1cnc2ccccc21")
9.6
>>> endpointvalue("O[C@@H](c1ccccc1)[C@H](Nc1ccnc(-n2cnc3ccccc32)n1)c1ccccc1")
7000
>>> endpointvalue("O[C@H](c1ccccc1)[C@@H](Nc1nccc(-n2cnc3ccccc32)n1)c1ccccc1")
310
>>> endpointvalue("c1ccc2c(c1)ncn2-c1ccnc(NCCc2c[nH]c3ccccc23)n1")
90
>>> endpointvalue("O=C(O)c1cc(-n2cnc3ccccc32)nc(NCCc2ccncc2)n1")
6900
>>> endpointvalue("c1ccc2c(c1)ncn2-c1ccnc(NCCc2ccncc2)c1")
1200
>>> endpointvalue("O[C@H](c1ccccc1)[C@@H](Nc1ccnc(-n2cnc3ccccc32)n1)c1ccccc1")
320
>>> endpointvalue("Brc1cnc(NCCc2ccncc2)nc1-n1ccnc1")
1200
>>> endpointvalue("N#Cc1cnc(NCCc2ccncc2)nc1-n1ccnc1")
6900
>>> endpointvalue("O[C@@H](c1ccccc1)[C@H](Nc1nccc(-n2cnc3ccccc32)n1)c1ccccc1")
3800

----------
targetSystem: UniProtKB Q9HBH9
assayMethodText: Mnk2 kinase inhibition, ADP-Glo ADP monitoring assay
Assay type: biochemical
testParameters: ADP-Glo kinase assay; unit inferred; read-out: Mnk2 IC50
The following compounds are shown together with reported IC50 values.
assayReadout: IC50

>>> endpointvalue("Oc1cnc(NCCc2ccncc2)nc1-n1cnc2ccccc21")
"> 10000 nM"
>>> endpointvalue("NC(=O)c1cc(-n2cnc3ccccc32)nc(NCCc2ccncc2)n1")
"890 nM"
>>> endpointvalue("c1ccc(C2CC2Nc2nccc(-n3cnc4ccccc43)n2)cc1 (centres unmarked)")
"920 nM"
>>> endpointvalue("CCOC(=O)c1cnc(NCCc2ccncc2)nc1-n1cnc2ccccc21")
"5400 nM"
>>> endpointvalue("Nc1cc(-n2cnc3ccccc32)nc(NCCc2ccncc2)n1")
"170 nM"

----------
targetSystem: Mnk1 (Homo sapiens (Human), UniProt Q9BUB5)
Sequence (Q9BUB5 whole entry): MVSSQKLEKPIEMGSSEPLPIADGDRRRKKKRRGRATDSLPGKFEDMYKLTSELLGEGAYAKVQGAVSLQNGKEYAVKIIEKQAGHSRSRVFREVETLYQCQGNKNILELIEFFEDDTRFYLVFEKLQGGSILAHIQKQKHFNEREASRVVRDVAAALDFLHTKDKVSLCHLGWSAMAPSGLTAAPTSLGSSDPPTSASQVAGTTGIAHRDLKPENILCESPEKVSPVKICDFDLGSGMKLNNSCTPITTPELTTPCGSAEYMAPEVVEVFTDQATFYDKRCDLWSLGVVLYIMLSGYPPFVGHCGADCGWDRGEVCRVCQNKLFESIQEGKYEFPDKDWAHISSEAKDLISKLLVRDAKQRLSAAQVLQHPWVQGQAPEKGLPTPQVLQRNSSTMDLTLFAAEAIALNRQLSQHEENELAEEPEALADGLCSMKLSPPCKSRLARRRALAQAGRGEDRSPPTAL
assayMethodText: Mnk1 kinase inhibition, ADP-Glo ADP monitoring assay
Type: biochemical
testParameters: read-out: Mnk1 inhibition IC50 (+,++,+++)
pIC50: −log10 of the molar value.
assayReadout: pIC50

>>> endpointvalue("OC1CC(Nc2ncc(Cl)c(-n3cnc4ccccc43)n2)C1 (stereo not drawn) [NUCC-0201003]")
"5.00 to 6.00"
>>> endpointvalue("CC(C)(COc1ncc(C#N)c(-n2cnc3ccccc32)n1)c1ccnc(F)c1 [NUCC-0201917]")
"> 6.00"
>>> endpointvalue("CC(C)(COc1nc(-n2cnc3ccccc32)ncc1Cl)c1ccnc(F)c1 [NUCC-0201920]")
"> 6.00"
>>> endpointvalue("O=C1CCN(c2ncc(Cl)c(-n3cnc4ccccc43)n2)C1 [NUCC-0201051]")
"5.00 to 6.00"
>>> endpointvalue("Clc1cnc(NC2CCC2)nc1-n1cnc2ccccc21 [NUCC-0201050]")
"5.00 to 6.00"
>>> endpointvalue("Fc1cnc(NC23CC(C2)C3)nc1-n1cnc2ccccc21 [NUCC-0201887]")
"> 6.00"
>>> endpointvalue("N#Cc1cnc(OCCc2ccncc2)nc1-n1cnc2ccccc21 [NUCC-0200786]")
"> 6.00"
>>> endpointvalue("Clc1cnc(OCCN2CCOCC2)nc1-n1cnc2ccccc21 [NUCC-0200806]")
"5.00 to 6.00"
>>> endpointvalue("CC1(C)COC(=O)C1Oc1ncc(Cl)c(-n2cnc3ccccc32)n1 (stereo not drawn) [NUCC-0201017]")
"> 6.00"
>>> endpointvalue("N#Cc1cnc(OC2CC(N)C2)nc1-n1cnc2ccccc21 (stereo not drawn) [NUCC-0200907]")
"> 6.00"
>>> endpointvalue("Fc1cccc(CCOc2ncc(Cl)c(-n3cnc4ccccc43)n2)c1 [NUCC-0201906]")
"> 6.00"
>>> endpointvalue("Cc1cc2ncn(-c3nc(NCCc4ccncc4)ncc3Cl)c2cc1C [NUCC-0200797]")
"< 5.00"
>>> endpointvalue("N#Cc1cnc(OC2CC(N)C2)nc1-n1cnc(-c2ccc(Cl)c(Cl)c2)c1 (stereo not drawn) [NUCC-0201248]")
"5.00 to 6.00"
>>> endpointvalue("CC(C)(COc1ncc(Cl)c(-n2cnc3ccccc32)n1)c1ccnc(F)c1 [NUCC-0201914]")
"> 6.00"
>>> endpointvalue("NC(=O)c1cccc(-c2cnc(OC3CCNC3)nc2-n2cnc3ccccc32)c1 (stereo not drawn) [NUCC-0201901]")
"5.00 to 6.00"
>>> endpointvalue("Clc1cnc(NC2CCN(c3nccn4ccnc34)C2)nc1-n1cnc2ccccc21 (stereo not drawn) [NUCC-0201015]")
"5.00 to 6.00"
>>> endpointvalue("CC(C)(COc1ncc(Cl)c(-n2cnc3ccccc32)n1)c1ccncc1 [NUCC-0201593]")
"5.00 to 6.00"
>>> endpointvalue("NC1CC(Oc2nc(-n3cnc4ccccc43)c3ccccc3n2)C1 (stereo not drawn) [NUCC-0201894]")
"> 6.00"
>>> endpointvalue("CC(C)(COc1ncc(Cl)c(OCC(C)(C)c2ccnc(F)c2)n1)c1ccnc(F)c1 [NUCC-0201919]")
"5.00 to 6.00"
>>> endpointvalue("N#Cc1cnc(OCCc2ccnc(F)c2)nc1-n1cnc2ccccc21 [NUCC-0201918]")
"> 6.00"
>>> endpointvalue("NC(=O)c1cccc(-c2cnc(OC3CC(N)C3)nc2-n2cnc3ccccc32)c1 (stereo not drawn) [NUCC-0201899]")
"5.00 to 6.00"

----------
Items are presented alongside their recorded IC50.
targetSystem: Mnk1 (Homo sapiens (Human))
assayMethodText: Mnk1 kinase inhibition, ADP-Glo ADP monitoring assay
Assay type: biochemical
testParameters: read-out: Mnk1 IC50
assayReadout: IC50 (µM)

>>> endpointvalue("COc1cccc(-n2cc(-c3ccnc(NCc4ccncc4)n3)cn2)c1")
8
>>> endpointvalue("Clc1cnc(NCc2cccnc2)nc1-n1cnc2ccccc21")
4.5
>>> endpointvalue("c1ccc2c(c1)ncn2-c1ccnc(NCCN2CCOCC2)n1")
1
>>> endpointvalue("c1ccc2c(c1)CCN2c1ccnc(NCCc2ccncc2)n1")
8.5
>>> endpointvalue("S=c1oc2ccccc2n1-c1ccnc(NCCc2ccncc2)n1")
10
>>> endpointvalue("OCCNc1ncc(Cl)c(-n2cnc3ccccc32)n1")
0.45
>>> endpointvalue("O=C1CCCN1CCCNc1ccnc(-n2cnc3ccccc32)n1")
10
>>> endpointvalue("COc1cccc(-n2cc(-c3ccnc(NCCN(C)C)n3)cn2)c1")
4
>>> endpointvalue("COc1cccc(-n2cc(-c3ccnc(NCCN4CCOCC4)n3)cn2)c1")
12
>>> endpointvalue("c1cnc2ncn(-c3ccnc(NC4CCOC4)n3)c2c1 (stereo not drawn)")
13
>>> endpointvalue("O=C1CCCN1CCCNc1nccc(-n2cnc3ccccc32)n1")
7.2
>>> endpointvalue("COc1cccc(-n2cc(-c3ccnc(NCCCN4CCOCC4)n3)cn2)c1")
28
>>> endpointvalue("COC(=O)CNc1ncc(Cl)c(-n2cnc3ccccc32)n1")
11
>>> endpointvalue("OC1CCCC1Nc1nccc(-n2cnc3ccccc32)n1 (stereo not drawn)")
0.45
>>> endpointvalue("NC(=O)c1ccc(Nc2nccc(-n3cnc4ccccc43)n2)cc1")
0.7
>>> endpointvalue("COc1cccc(-n2cc(-c3ccnc(NC4CCOC4)n3)cn2)c1 (stereo not drawn)")
6
>>> endpointvalue("c1cnc2ncn(-c3ccnc(NCCc4ccncc4)n3)c2c1")
8.5
>>> endpointvalue("c1ccc2c(c1)CCN2c1ccnc(N[C@@H]2CCOC2)n1")
4.6
>>> endpointvalue("CN(C)CCNc1nccc(-n2cnc3ccccc32)n1")
0.5
>>> endpointvalue("OC1CCC(Nc2nccc(-n3cnc4ccccc43)n2)CC1 (stereo not drawn) [NUCC-0176145]")
0.4
>>> endpointvalue("c1ccc2c(c1)ccn2-c1cc(NCCc2ccncc2)ncn1")
4.7

----------
targetSystem: Mnk2 (Homo sapiens (Human), UniProt Q9HBH9)
assayMethodText: Mnk2 kinase inhibition, ADP-Glo ADP monitoring assay
Type: biochemical
testParameters: ADP-Glo kinase assay; read-out: Mnk2 IC50
Listing of recorded IC50 by entry.
assayReadout: IC50 (nM)

>>> endpointvalue("Fc1cnc(NCCc2ccncc2)nc1-n1ccc2ccccc21")
10000
>>> endpointvalue("c1ccc2c(c1)CCN2c1ccnc(N[C@H]2CCOC2)n1")
380
>>> endpointvalue("c1ccc2c(c1)NCCN2c1ccnc(NCCc2ccncc2)n1")
250
>>> endpointvalue("COc1cccc(-n2cc(-c3ccnc(NCCc4ccncc4)c3)cn2)c1")
1700
>>> endpointvalue("c1ccc2c(c1)ncn2-c1ccnc(NN2CCOCC2)n1")
1000
>>> endpointvalue("O=C1CCCN1CCCNc1ccnc(-n2cnc3ccccc32)n1")
2600
>>> endpointvalue("Fc1cnc(NCCc2ccncc2)nc1-n1cnc2ccccc21")
49
>>> endpointvalue("FC(F)(F)c1cnc(NCCc2ccncc2)nc1-n1cnc2ccccc21")
28
